System: HLE
Assay Comment: Cell Titer-Glo proliferation assay, 72 h
Format: cell-based
Applied Conditions: Homo sapiens; HLE cells, 72 h OSI-906
Measured Quantity: EC50

Query: // query EC50 value for entry C[C@]1(O)C[C@@H](c2nc(-c3ccc4ccc(-c5ccccc5)nc4c3)c3c(N)nccn32)C1 [OSI-906]
Reply: > 10 µM

* * *

Test system: JHH-5
Assay Comment: Cell Titer-Glo proliferation assay, 72 h
Type: cell-based
Applied Conditions: Homo sapiens; JHH-5 cells, 72 h OSI-906
Measured Quantity: EC50 (µM)
Give just the number in µM; leave the unit off.

Query: // query EC50 value for entry C[C@]1(O)C[C@@H](c2nc(-c3ccc4ccc(-c5ccccc5)nc4c3)c3c(N)nccn32)C1 [OSI-906]
Reply: 0.19
